Below, each of the molecules is paired with its reported inhibition at 10 µM value.
molecular target: B1R receptor of the rat (rB1R) (Rattus norvegicus, UniProt P97583); construct: expressed in transfected cells; host or cells: CHO K1 cells; assay: Functional investigation on the bradykinin 1 receptor (B1R), FLIPR Ca2+ assay, rB1R cells; assay type: cell-based; conditions: CHO-K1, 10 μM test substance; CHO K1 cells with rat B1R; agonist Des-Arg9 bradykinin; % of maximum achievable inhibition; read-out: B1R antagonism, rat [10 μM] % inhibition
Sequence (P97583 whole entry): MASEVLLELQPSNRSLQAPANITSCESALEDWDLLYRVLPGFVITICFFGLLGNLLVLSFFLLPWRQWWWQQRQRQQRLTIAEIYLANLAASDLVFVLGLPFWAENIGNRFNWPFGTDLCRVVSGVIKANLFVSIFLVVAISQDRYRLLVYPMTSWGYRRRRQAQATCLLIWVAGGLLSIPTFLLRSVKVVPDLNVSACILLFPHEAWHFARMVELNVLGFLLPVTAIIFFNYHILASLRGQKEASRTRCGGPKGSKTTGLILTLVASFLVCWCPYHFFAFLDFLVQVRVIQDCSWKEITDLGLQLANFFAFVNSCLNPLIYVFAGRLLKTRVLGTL
PROPERTY LABEL: inhibition at 10 µM (%)

> print(dat)
                                   molecule       property.label  value.units  value.measured
1  COc1cc(C)c(S(=O)(=O)Nc2cccc3ccn(CC(=O)N4CC5CC4CN5Cc4ccncc4)c23)c(C)c1 (stereo not shown)  inhibition at 10 µM            %              58
2  COc1cc(C)c(S(=O)(=O)Nc2cccc3ccn(CC(=O)N(C)CCN4CCC(c5cccc(F)c5)(N5CCN(C)CC5)CC4)c23)c(C)c1  inhibition at 10 µM            %              89
3  O=C(Cn1ccc2cccc(NS(=O)(=O)c3cccc4ccccc34)c21)N1CCC2(CC1)CCN(c1ccncc1)CC2  inhibition at 10 µM            %              96
4  COc1cc(C)c(S(=O)(=O)Nc2ccc3ccn(CC(=O)N4CCN(c5ncccn5)CC4)c3c2)c(C)c1  inhibition at 10 µM            %              82
